Source listed as patent US20240315989A1.

// reported Unadjusted Odds Ratio, ED or hospital encounter within 30 days for each item listed
# Tested on: SARS-CoV-2 infection
# ASSAY_EXPLANATION: Retrospective cohort (BJC Healthcare): antidepressant exposure and ED or hospital encounter within 30 days
# Assay type: in vivo, human
# CONDITION_DETAILS: vs No Antidepressant (Ref); logistic regression
Response field accepts a number only; no unit should be typed.

CNCC[C@H](Oc1cccc2ccccc12)c1cccs1; 2.61
Cc1ccc(Sc2ccccc2N2CCNCC2)c(C)c1; 1.56
CNCCC=C1c2ccccc2CCc2ccccc21; 3.02
COc1ccc(C(CN(C)C)C2(O)CCCCC2)cc1 (centres unmarked); 1.94

Please turn your attention to the following entry.
Task: I'd like to know its Unadjusted Odds Ratio, ED or hospital encounter within 30 days. The compound in question is CN(C)CC(c1ccc(O)cc1)C1(O)CCCCC1 (centres unmarked)
Result: 2.15
